# Tested on: concanavalin A-induced lymphoblasts (Con A splenocytes)
# Assay Text: Lymphoblast viability (LbV) assay
# Applied Conditions: Con A-stimulated splenocytes (lymphoblasts), MTT
Numbered stars: 1 amine (or outer) side, 2 acyl side, 3 side chain; on linkers, the order of the positions; unused ones are H or OH. Bridge positions count the residues as written; N and C are the ends. Square brackets hold non-standard residues; d marks the D form. Peptide text beside a SMILES is read from it. * marks the point of attachment. X1 = CC[C@H](C)[C@@H](N[*:1])[C@@H](O)CC(=O)O[C@H](C(=O)[C@H](C)C(=O)[*:2])C(C)C; NMeY = CN[C@@H](Cc1ccc(O)cc1)C(=O)O; dNMeL = CN[C@H](CC(C)C)C(=O)O; Pentanoyl = CCCCC(=O)*
Measured cytotoxicity to lymphocytes LbV, LC50, listed per entry for reference.
Remember to put the unit after the number in your answer.

{"Molecule": "CC[C@H](C)[C@H]1NC(=O)[C@@H](NC(=O)[C@@H](CC(C)C)N(C)C(=O)[C@@H]2CCCN2C(=O)[C@H](C)O)[C@@H](C)OC(=O)[C@H](Cc2ccc(O)cc2)NC(=O)[C@@H]2CCCN2C(=O)[C@H](CC(C)C)NC(=O)[C@@H](C)C(=O)[C@H](C(C)C)OC(=O)C[C@@H]1O [Compound 13, Didemnin N]", "Measurement": "210000 pM"}
{"Molecule": "CC[C@H](C)[C@H]1NC(=O)[C@@H](NC(=O)[C@@H](CC(C)C)N(C)C(=O)[C@@H]2CCCN2C(=O)[C@H](C)O)[C@@H](C)OC(=O)[C@H](CC2CCCCC2)N(C)C(=O)[C@@H]2CCCN2C(=O)[C@H](CC(C)C)NC(=O)[C@@H](C)C(=O)[C@H](C(C)C)OC(=O)C[C@@H]1O [Compound 16, [H6 -N-MePhe^6]Didemnin B]", "Measurement": "730 pM"}

Value lookup for cytotoxicity to lymphocytes LbV, LC50; key = CCCCC(=O)N(C)[C@H](CC(C)C)C(=O)N[C@@H]1C(=O)N[C@H]([C@@H](C)CC)[C@@H](O)CC(=O)O[C@@H](C(C)C)C(=O)[C@H](C)C(=O)N[C@@H](CC(C)C)C(=O)N2CCC[C@H]2C(=O)N(C)[C@@H](Cc2ccc(OC)cc2)C(=O)O[C@@H]1C [Compound 21, N^α -Pentanoyldidemnin A] (Pentanoyl-[dNMeL]T[X1]LP[NMeY](Me); ester 2-C)
59 pM

---

# Tested on: murine splenocytes (Balb/c and C57B1/6)
# Assay Text: Two-way mixed lymphocyte reaction (MLR) assay;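 also: proliferation read as tritiated thymidine incorporation into newly made DNA after an overnight pulse, expressed as percent of control activity, IC50 interpolated per compound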
# Applied Conditions: read-out: two-way mixed lymphocyte reaction (MLR) suppression MLR, IC50; Balb/c + C57B1/6 splenocytes, 96 h, [3H]thymidine
Numbered stars: 1 amine (or outer) side, 2 acyl side, 3 side chain; on linkers, the order of the positions; unused ones are H or OH. Bridge positions count the residues as written; N and C are the ends. Square brackets hold non-standard residues; d marks the D form. Peptide text beside a SMILES is read from it. * marks the point of attachment. X1 = CC[C@H](C)[C@@H](N[*:1])[C@@H](O)CC(=O)O[C@H](C(=O)[C@H](C)C(=O)[*:2])C(C)C; X7 = CCC(C)C(N[*:1])C(O)CC(=O)OC(C(=O)C(C)C(=O)[*:2])C(C)C; NMeY = CN[CH](Cc1ccc(O)cc1)C(=O)O; dNMeL = CN[C@H](CC(C)C)C(=O)O; NMeL = CN[CH](CC(C)C)C(=O)O; Pyruvoyl = CC(=O)C(=O)*; Cbz = O=C(OCc1ccccc1)*; Butyryl = CCCC(=O)*
Measured IC50, listed per entry for reference.
Remember to put the unit after the number in your answer.

Answered examples (4):
{"Compound": "CC[C@H](C)[C@H]1NC(=O)[C@@H](NC(=O)[C@@H](CC(C)C)N(C)C(=O)[C@@H]2CCCN2)[C@@H](C)OC(=O)[C@H](Cc2ccc(OC)cc2)N(C)C(=O)[C@@H]2CCCN2C(=O)[C@H](CC(C)C)NC(=O)[C@@H](C)C(=O)[C@H](C(C)C)OC(=O)C[C@@H]1O [Compound 28, N^α -(L-Pro)Didemnin A] (H-P[dNMeL]T[X1]LP[NMeY](Me); ester 3-C)", "Measurement": "0.96 nM"}
{"Compound": "CC[C@H](C)[C@H]1NC(=O)[C@@H](NC(=O)[C@@H](CC(C)C)N(C)C(=O)[C@@H]2CCCN2C(=O)C(C)=O)[C@@H](C)OC(=O)[C@H](Cc2ccc(OC)cc2)N(C)C(=O)[C@@H]2CCCN2C(=O)[C@H](CC(C)C)NC(=O)[C@@H](C)C(=O)[C@H](C(C)C)OC(=O)C[C@@H]1O [Compound 30, dehydrodidemnin B] (Pyruvoyl-P[dNMeL]T[X1]LP[NMeY](Me); ester 3-C)", "Measurement": "0.38 nM"}
{"Compound": "CC[C@H](C)[C@H]1NC(=O)[C@@H](NC(=O)[C@@H](CC(C)C)N(C)C(=O)OCc2ccccc2)[C@@H](C)OC(=O)[C@H](Cc2ccc(OC)cc2)N(C)C(=O)[C@@H]2CCCN2C(=O)[C@H](CC(C)C)NC(=O)[C@@H](C)C(=O)[C@H](C(C)C)OC(=O)C[C@@H]1O [Compound 3, Z-Didemnin A] (Cbz-[dNMeL]T[X1]LP[NMeY](Me); ester 2-C)", "Measurement": "1.02 nM"}
{"Compound": "CCCC(=O)N(C)C(CC(C)C)C(=O)NC1C(=O)NC(C(C)CC)C(O)CC(=O)OC(C(C)C)C(=O)C(C)C(=O)NC(CC(C)C)C(=O)N2CCCC2C(=O)N(C)C(Cc2ccc(OC)cc2)C(=O)OC1C (stereo not drawn) [Compound 20, N^α -n-Butyryldidemnin A] (Butyryl-[NMeL]T[X7]LP[NMeY](Me); ester 2-C; configuration not given here)", "Measurement": "0.3 nM"}

Which measured IC50 belongs to `CC[C@H](C)[C@H]1NC(=O)[C@@H](NC(=O)[C@@H](CC(C)C)N(C)C(=O)[C@@H]2CCCN2C(=O)[C@H](C)O)[C@@H](C)OC(=O)[C@H](Cc2ccc(O)cc2)NC(=O)[C@@H]2CCCN2C(=O)[C@H](CC(C)C)NC(=O)[C@@H](C)C(=O)[C@H](C(C)C)OC(=O)C[C@@H]1O` , tested on murine splenocytes (Balb/c and C57B1/6)?
34.2 nM

Repeat for the following compound: CC[C@H](C)[C@H]1NC(=O)[C@@H](NC(=O)[C@@H](CC(C)C)N(C)C(C)=O)[C@@H](C)OC(=O)[C@H](Cc2ccc(OC)cc2)N(C)C(=O)[C@@H]2CCCN2C(=O)[C@H](CC(C)C)NC(=O)[C@@H](C)C(=O)[C@H](C(C)C)OC(=O)C[C@@H]1O [Compound 18, N^α -Acetyldidemnin A] (Ac-[dNMeL]T[X1]LP[NMeY](Me); ester 2-C)
0.027 nM

---

Measured cytoxicity to lymphocytes LcV, LC50, listed per entry for reference.
# System: Balb/c splenocytes (resting lymphocytes)
# Assay Text: Lymphocyte viability (LcV) assay
# Type: cell-based, murine
# Applied Conditions: unstimulated Balb/c splenocytes, MTT
Numbered stars: 1 amine (or outer) side, 2 acyl side, 3 side chain; on linkers, the order of the positions; unused ones are H or OH. Bridge positions count the residues as written; N and C are the ends. Square brackets hold non-standard residues; d marks the D form. Peptide text beside a SMILES is read from it. X1 = CC[C@H](C)[C@@H](N[*:1])[C@@H](O)CC(=O)O[C@H](C(=O)[C@H](C)C(=O)[*:2])C(C)C; NMeY = CN[C@@H](Cc1ccc(O)cc1)C(=O)O; dNMeL = CN[C@H](CC(C)C)C(=O)O; pGlu = O=C1CC[C@@H](C(=O)O)N1; Lac = C[C@H](O)C(=O)O

Answered examples (2):
{"Molecule": "CC[C@H](C)[C@H]1NC(=O)[C@@H](NC(=O)[C@@H](CC(C)C)N(C)C(=O)[C@H]2CCCN2)[C@@H](C)OC(=O)[C@H](Cc2ccc(OC)cc2)N(C)C(=O)[C@@H]2CCCN2C(=O)[C@H](CC(C)C)NC(=O)[C@@H](C)C(=O)[C@H](C(C)C)OC(=O)C[C@@H]1O [Compound 29, N^α -(D-Pro)-Didemnin A] (H-[dP][dNMeL]T[X1]LP[NMeY](Me); ester 3-C)", "cytoxicity to lymphocytes LcV, LC50": "> 9.60 µM"}
{"Molecule": "CC[C@H](C)[C@H]1NC(=O)[C@@H](NC(=O)[C@@H](CC(C)C)N(C)C(=O)[C@@H]2CCCN2C(=O)[C@H](C)OC(=O)[C@@H]2CCC(=O)N2)[C@@H](C)OC(=O)[C@H](Cc2ccc(OC)cc2)N(C)C(=O)[C@@H]2CCCN2C(=O)[C@H](CC(C)C)NC(=O)[C@@H](C)C(=O)[C@H](C(C)C)OC(=O)C[C@@H]1O [Compound 37, O-Pyroglutamyldidemnin B] ([pGlu][Lac]P[dNMeL]T[X1]LP[NMeY](Me); ester 5-C)", "cytoxicity to lymphocytes LcV, LC50": "> 8.20 µM"}

Value lookup for cytoxicity to lymphocytes LcV, LC50; key = `CC[C@H](C)[C@H]1NC(=O)[C@@H](NC(=O)[C@@H](CC(C)C)NC)[C@@H](C)OC(=O)[C@H](Cc2ccc(OC)cc2)N(C)C(=O)[C@@H]2CCCN2C(=O)[C@H](CC(C)C)NC(=O)[C@@H](C)C(=O)[C@H](C(C)C)OC(=O)C[C@@H]1OC(C)=O`
> 10.0 µM

Values were extracted from patent US6156724A.
